- System: PA-1
- Protocol Details: Primary qHTS to identify gynecologic anti-cancer compounds using libraries of approved drugs and bioactive compounds (AID 1345084); also: nearly all actives have a fitted effect of over 55% in size
- Condition Details: Gynecologic cancer cell panel viability, ATPlite luminescence, 48 h; series mostly up to 57.5 µM
Results filed as inconclusive are left out. Calls of active or inactive are those of the source. Calls follow the shape of the dose curve; as a rule, active = well fitted cell-killing curve with a large enough effect; inconclusive = small, poorly fitted or top-dose-only effect, or effect the other way; inactive = flat fitted curve, though single readings scatter.
Labels: active, inactive

>>> label_class("O=C(O[C@H]1[C@@H]2C=CO[C@@H](O[C@@H]3O[C@H](CO)[C@@H](O)[C@H](O)[C@H]3O)[C@@H]2[C@@]2(CO)O[C@@H]12)c1ccccc1")
"inactive"
>>> label_class("COc1c2cc(c(O)c1OC)-c1cc(ccc1O)CCC(O)CCCC2 (centres undefined)")
"inactive"
>>> label_class("COc1cc2c(NC3CCN(CC4CCCCC4)CC3)nc(N3CCCN(C(C)C)CC3)nc2cc1OCCCN1CCCCC1")
"active"
>>> label_class("C[C@@H]1CC[C@]2(C(=O)OC3OC(CO)C(O)C(O)C3O)CC[C@]3(C)C(=CCC4[C@@]5(C)CC[C@H](O)[C@](C)(C(=O)O)C5CC[C@]43C)C2[C@]1(C)O (some centres undefined)")
"inactive"

Values from PubChem BioAssay (NCATS)
